Documented Neutralization IC50, H3-HK68 across a set of binders
Assayed Target: HA of A/Hong Kong/8/68 (H3N2) (influenza A virus)
Assay Explanation: cell-based or functional assay
Expressed in µg/mL, but write only the number.

Reference set (4 entries):
# Binder, Neutralization IC50, H3-HK68 / µg/mL
records = [
    ("Antibody 6 (antibody, V domains shown) VH: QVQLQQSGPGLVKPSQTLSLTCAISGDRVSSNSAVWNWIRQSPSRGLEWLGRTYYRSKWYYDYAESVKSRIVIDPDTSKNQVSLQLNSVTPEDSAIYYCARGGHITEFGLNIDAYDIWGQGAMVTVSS VL: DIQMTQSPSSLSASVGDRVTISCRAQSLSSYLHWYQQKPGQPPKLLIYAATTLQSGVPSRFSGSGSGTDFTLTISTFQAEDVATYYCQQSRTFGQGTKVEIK", 2.04),
    ("Antibody 3 (antibody, V domains shown) VH: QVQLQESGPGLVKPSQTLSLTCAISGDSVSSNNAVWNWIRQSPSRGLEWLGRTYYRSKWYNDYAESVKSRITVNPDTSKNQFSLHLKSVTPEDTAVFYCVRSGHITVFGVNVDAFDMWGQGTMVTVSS VL: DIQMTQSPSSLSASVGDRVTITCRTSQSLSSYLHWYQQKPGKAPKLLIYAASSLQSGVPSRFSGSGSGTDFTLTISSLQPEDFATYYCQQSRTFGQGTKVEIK", 0.68),
    ("Antibody 5 (antibody, V domains shown) VH: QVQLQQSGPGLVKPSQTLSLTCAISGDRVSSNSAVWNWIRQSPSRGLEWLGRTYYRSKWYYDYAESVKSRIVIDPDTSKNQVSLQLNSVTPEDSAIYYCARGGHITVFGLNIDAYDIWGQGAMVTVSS VL: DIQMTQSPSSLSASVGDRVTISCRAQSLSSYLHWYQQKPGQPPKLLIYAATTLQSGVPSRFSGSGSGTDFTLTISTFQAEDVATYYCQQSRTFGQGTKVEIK", 0.39),
    ("Antibody 8 (antibody, V domains shown) VH: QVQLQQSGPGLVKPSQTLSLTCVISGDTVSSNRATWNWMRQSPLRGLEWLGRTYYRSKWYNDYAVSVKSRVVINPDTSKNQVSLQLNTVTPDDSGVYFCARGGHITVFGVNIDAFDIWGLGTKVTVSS VL: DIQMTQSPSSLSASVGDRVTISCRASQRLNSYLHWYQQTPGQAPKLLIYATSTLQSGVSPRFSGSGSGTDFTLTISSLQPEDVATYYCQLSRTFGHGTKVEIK", 2.82),
]

Below: the item to evaluate.
Please report the measured Neutralization IC50, H3-HK68 for Antibody 10 (antibody, V domains shown) VH: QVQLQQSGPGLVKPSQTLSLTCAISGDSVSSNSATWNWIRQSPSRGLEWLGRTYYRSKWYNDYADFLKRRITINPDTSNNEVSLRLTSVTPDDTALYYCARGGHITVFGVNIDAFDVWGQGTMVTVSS VL: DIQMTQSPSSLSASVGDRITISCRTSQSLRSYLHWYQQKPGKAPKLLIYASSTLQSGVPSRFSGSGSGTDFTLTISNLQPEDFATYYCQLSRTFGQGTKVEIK
0.85
